Data provenance is ChEMBL document CHEMBL1765035.

assay: Inhibition of human Pgp overexpressed in […]-MDR1 cells assessed as inhibition of R123 efflux after 60 mins; assay type: cell-based, MDCK-II; conditions: 1 h
API: label(entry) gives Satisfied if the entry's IC50 is strictly smaller than 2000 nM; on equality or larger values it gives Not satisfied.

- Compound string: "COc1cc2c(cc1OC)CN(CCc1ccc(NC(=O)c3cc(F)cc4c(=O)c5cccc(OC)c5[nH]c34)cc1)CC2"
  Class label: "Satisfied"
- Compound string: "COc1cc2c(cc1OC)CN(CCc1ccc(NC(=O)c3ccc([N+](=O)[O-])c4c(=O)c5cccc(OC)c5[nH]c34)cc1)CC2"
  Class label: "Satisfied"
- Compound string: "COc1cc2c(cc1OC)CN(CCc1ccc(NC(=O)c3cc(Cl)cc4c(=O)c5cccc(OC)c5[nH]c34)cc1)CC2"
  Class label: "Satisfied"
- Compound string: "COc1cc2c(cc1OC)CN(CCc1ccc(NC(=O)c3ccc(Cl)c4c(=O)c5cccc(OC)c5[nH]c34)cc1)CC2"
  Class label: "Not satisfied"
- Compound string: "COc1cc2c(cc1OC)CN(CCc1ccc(NC(=O)c3ccc(F)c4c(=O)c5cccc(OC)c5[nH]c34)cc1)CC2"
  Class label: "Satisfied"

----------
assay: Ratio of drug level in brain to blood in wild-type mouse; assay type: ADME, tissue-based
Measured endpoint: Kp

- Compound string: "COc1cc2c(cc1OC)CN(CCc1ccc(NC(=O)c3ccc([18F])c4c(=O)c5cccc(OC)c5[nH]c34)cc1)CC2"
  Measured endpoint: "Kp"
  Value reported: 1.5

----------
assay: Ratio of drug level in brain to blood in Mdr1a/b(-/-)/Bcrp1(-/-) mouse; format: ADME, tissue-based
Measured endpoint: Kp

- Compound string: "COc1cc2c(cc1OC)CN(CCc1ccc(NC(=O)c3ccc([18F])c4c(=O)c5cccc(OC)c5[nH]c34)cc1)CC2"
  Value reported: 11.6
